Sourced from paper PMC2978359

target: MBD of MeCP2 (wild type) (human/mouse (residues 76-167 identical), UniProt P51608 76-167); assay: EMSA/T4 endonuclease V
Sequence (P51608 76-167): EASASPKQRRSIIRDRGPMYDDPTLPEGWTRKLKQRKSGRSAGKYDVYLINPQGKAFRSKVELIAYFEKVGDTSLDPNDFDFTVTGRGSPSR
Each item that follows carries a reported Kd.
Enter your answer as a number in nM; do not include the unit.

Worked examples follow.
| BINDER | UNIT_SPEC | Kd |
| --- | --- | --- |
| T=TmCG•mCGAA CPD duplex (dsDNA, 5-methyl-dC at strand 1 pos 12 and strand 2 pos 8; cis-syn CPD between T10 and T11) DNA 1: TAGAAGAATTTCGTTCCAGA DNA 2: TCTGGAACGAAATTCTTCTA | nM | 13 |
| C=mCG•mCGG CPD duplex (dsDNA, 5-methyl-dC at strand 1 pos 12 and strand 2 pos 8; cis-syn CPD between C11 and mC12) DNA 1: TAGAAGAATTCCGTTCCAGA DNA 2: TCTGGAACGGAATTCTTCTA | nM | 11 |

Moving on to another binder below.
Exercise: Report measured Kd; entry is T=TTmCG•mCGAAA CPD duplex (dsDNA, 5-methyl-dC at strand 1 pos 12 and strand 2 pos 8; cis-syn CPD between T9 and T10) DNA 1: TAGAAGAATTTCGTTCCAGA DNA 2: TCTGGAACGAAATTCTTCTA
Solution: 47
